- Method Description: Drug level in thoracic aortic banded Sprague-Dawley rat plasma at 5 mg/kg, po qd for 14 days
- Assay type: ADME, organism-based
- Set-up: dose 5 mg/kg, route oral
Value Kind: concentration at 336 h (nM)
Supply the numeric figure in nM, leaving out any unit text.

Which concentration at 336 h reading was recorded for the compound c1cc2c(N3CCNCC3)nc(-c3ccnc(NC4CCCCC4)c3)cc2cn1 ?
288

###

Parameter: concentration at 336 h. Scope: all listed entries.
- Method Description: Drug level in Dahl salt-sensitive rat left ventricle at 50 mg/kg, po qd for 14 days
- Assay type: ADME, organism-based
- Set-up: dose 50 mg/kg, route oral
- Assay Conditions: heart left ventricle, read-out: Drug uptake
The answer is to be given in µM; state only the numeric part.

Input Smiles	Recorded Result
CC(C)NC(=O)C1CCN(c2nc(-c3ccnc(NC4CCOCC4)c3)cc3cnccc23)CC1	2.02

Suppose we examine the molecule c1cc2c(N3CCNCC3)nc(-c3ccnc(NC4CCCCC4)c3)cc2cn1 ; what concentration at 336 h value has been reported?
59.7
